# Study Target: EGFR L858R/T790M/C797S (Homo sapiens, UniProt P00533, C797S/L858R/T790M)
# Sequence (P00533 25-1210 T790M/C797S/L858R): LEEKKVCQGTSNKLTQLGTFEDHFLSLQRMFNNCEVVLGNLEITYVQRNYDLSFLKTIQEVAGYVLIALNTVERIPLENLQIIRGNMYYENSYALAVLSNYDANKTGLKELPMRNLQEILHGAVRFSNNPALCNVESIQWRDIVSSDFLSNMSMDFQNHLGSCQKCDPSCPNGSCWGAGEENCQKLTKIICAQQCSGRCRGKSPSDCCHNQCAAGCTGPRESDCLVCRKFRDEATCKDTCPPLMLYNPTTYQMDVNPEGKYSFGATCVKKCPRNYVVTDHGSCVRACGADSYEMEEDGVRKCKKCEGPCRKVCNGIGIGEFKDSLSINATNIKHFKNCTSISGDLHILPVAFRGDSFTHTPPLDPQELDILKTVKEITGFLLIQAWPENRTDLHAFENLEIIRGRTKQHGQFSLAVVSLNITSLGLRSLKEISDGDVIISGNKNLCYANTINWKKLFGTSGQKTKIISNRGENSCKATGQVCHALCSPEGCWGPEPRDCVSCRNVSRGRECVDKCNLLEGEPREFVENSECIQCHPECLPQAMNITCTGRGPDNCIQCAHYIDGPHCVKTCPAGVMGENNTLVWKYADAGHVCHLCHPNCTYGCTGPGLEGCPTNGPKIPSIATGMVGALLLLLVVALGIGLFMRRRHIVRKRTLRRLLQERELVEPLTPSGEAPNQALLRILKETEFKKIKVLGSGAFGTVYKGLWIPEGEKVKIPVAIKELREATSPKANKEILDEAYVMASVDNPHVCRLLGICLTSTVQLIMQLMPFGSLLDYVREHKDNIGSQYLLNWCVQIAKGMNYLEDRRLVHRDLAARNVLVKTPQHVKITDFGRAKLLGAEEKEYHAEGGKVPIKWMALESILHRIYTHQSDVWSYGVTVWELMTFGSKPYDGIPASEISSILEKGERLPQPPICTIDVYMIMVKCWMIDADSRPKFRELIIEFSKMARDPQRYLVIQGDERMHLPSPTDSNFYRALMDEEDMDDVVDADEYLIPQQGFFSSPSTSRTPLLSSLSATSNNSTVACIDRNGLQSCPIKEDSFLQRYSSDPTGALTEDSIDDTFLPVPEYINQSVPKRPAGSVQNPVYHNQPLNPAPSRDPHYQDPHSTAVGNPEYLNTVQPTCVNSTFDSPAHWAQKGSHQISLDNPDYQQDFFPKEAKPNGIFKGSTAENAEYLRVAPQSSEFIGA
# Method Summary: Biochemical EGFR kinase inhibition assay (Lance Ultra TR-FRET), triple mutant L858R/T790M/C797S
# Test Context: IC50 L858R/T790M/C797S (nM), 100 μM ATP
// values below are reported IC50

| Compound | IC50 |
| --- | --- |
| CC1(CO)CCN(c2cc(Nc3ccnc(-c4cnn(S(=O)(=O)C5CC5)c4)n3)ncc2C#CC2CCCCC2)CC1 | 15.9 nM |
| O=S(=O)(C1CC1)n1cc(-c2nccc(Nc3cc(N4C[C@H]5C[C@@]5(CO)C4)c(C#Cc4cnn(C(F)(F)F)c4)cn3)n2)cn1 | 13 nM |
| O=S(=O)(C1CC1)n1cc(-c2nccc(Nc3cc(NC4CCC(CO)CC4)c(C#CC4CCOC4C(F)(F)F)cn3)n2)cn1 (stereo not shown) | 2.8 nM |
| O=S(=O)(C1CC1)n1cc(-c2nccc(Nc3cc(N[C@H]4CC[C@@H](CO)CC4)c(C#Cc4cnn(CC(F)F)c4)cn3)n2)cn1 | 0.5 nM |
| CC(C)Nc1cc(Nc2ccnc(-c3cnn(S(=O)(=O)C4CC4)c3)n2)ncc1C#Cc1cnn(C(C)C)c1 | 3.7 nM |
| CC(=O)N1CCC(n2cc(C#Cc3cnc(Nc4ccnc(-c5cnn(S(=O)(=O)C6CC6)c5)n4)cc3N3CCC(C)(CO)CC3)cn2)CC1 | 1.3 nM |
| CC1(CO)CCN(c2cc(Nc3ccnc(-c4cnn(S(=O)(=O)C5CC5)c4)n3)ncc2C#CC2(O)CCCC2)CC1 | 0.7 nM |
| CN1CCN(Cc2ccc(C#Cc3cnc(Nc4ccnc(-c5cnn(S(=O)(=O)C6CC6)c5)n4)cc3N[C@H]3CC[C@@H](CO)CC3)cc2)CC1 | 0.9 nM |
| CC1(CO)CCN(c2cc(Nc3ccnc(-c4cnn(S(=O)(=O)C5CC5)c4)n3)ncc2C#CCC2(O)COC2)CC1 | 0.4 nM |
| O=S(=O)(C1CC1)n1cc(-c2nccc(Nc3cc(N4CCC(NCCO)CC4)c(C#Cc4cnn(C5CCOCC5)c4)cn3)n2)cn1 | 2 nM |
| CC(C)Nc1cc(Nc2ccnc(-c3cnn(S(=O)(=O)C4CC4)c3)n2)ncc1C#Cc1cnn(C)c1 | 1.1 nM |
| Cn1cc(C#Cc2cnc(Nc3ccnc(-c4cnn(S(=O)(=O)C5CC5)c4)n3)cc2N2CCC(C)(CO)CC2)cn1 | 0.6 nM |
| O=S(=O)(C1CC1)n1cc(-c2nccc(Nc3cc(N[C@H]4CC[C@@H](O)CC4)c(C#Cc4cnn(C(F)(F)F)c4)cn3)n2)cn1 | 7.6 nM |

====

# Study Target: EGFR Del19/T790M/C797S (Homo sapiens, UniProt P00533, C797S/DEL746-750/T790M)
# Sequence (P00533 with tags, fused parts or gaps DEL746-750/T790M/C797S): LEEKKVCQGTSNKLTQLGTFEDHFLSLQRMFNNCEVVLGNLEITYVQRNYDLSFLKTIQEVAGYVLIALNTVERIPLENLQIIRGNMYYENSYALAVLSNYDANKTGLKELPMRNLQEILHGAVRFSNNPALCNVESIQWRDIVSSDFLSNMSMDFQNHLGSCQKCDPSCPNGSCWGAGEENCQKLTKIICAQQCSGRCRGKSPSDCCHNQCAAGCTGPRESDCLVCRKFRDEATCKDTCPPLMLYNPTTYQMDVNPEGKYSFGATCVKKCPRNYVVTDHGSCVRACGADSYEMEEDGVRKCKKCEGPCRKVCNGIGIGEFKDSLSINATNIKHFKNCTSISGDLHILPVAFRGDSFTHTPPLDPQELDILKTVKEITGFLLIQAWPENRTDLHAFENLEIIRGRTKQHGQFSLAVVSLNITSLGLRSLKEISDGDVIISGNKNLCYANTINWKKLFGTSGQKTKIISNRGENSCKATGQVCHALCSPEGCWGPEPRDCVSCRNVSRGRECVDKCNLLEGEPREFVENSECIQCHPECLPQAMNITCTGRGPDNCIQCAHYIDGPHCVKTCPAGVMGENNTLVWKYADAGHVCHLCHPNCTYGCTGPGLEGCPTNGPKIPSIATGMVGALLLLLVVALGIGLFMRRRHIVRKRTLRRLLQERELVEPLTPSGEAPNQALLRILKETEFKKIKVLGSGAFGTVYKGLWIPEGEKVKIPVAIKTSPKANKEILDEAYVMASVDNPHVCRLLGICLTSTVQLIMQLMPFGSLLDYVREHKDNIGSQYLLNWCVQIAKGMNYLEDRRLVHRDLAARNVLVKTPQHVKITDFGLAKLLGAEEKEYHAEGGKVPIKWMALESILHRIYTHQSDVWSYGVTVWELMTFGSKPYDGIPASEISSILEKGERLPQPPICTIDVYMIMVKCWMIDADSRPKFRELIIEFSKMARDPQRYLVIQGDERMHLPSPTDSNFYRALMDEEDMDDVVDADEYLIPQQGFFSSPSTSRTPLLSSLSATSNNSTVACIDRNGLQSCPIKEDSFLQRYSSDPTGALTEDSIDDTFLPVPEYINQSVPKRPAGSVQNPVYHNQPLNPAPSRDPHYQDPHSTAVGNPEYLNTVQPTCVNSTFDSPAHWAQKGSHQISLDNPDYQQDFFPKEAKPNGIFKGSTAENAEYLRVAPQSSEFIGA
# Method Summary: Biochemical EGFR kinase inhibition assay (Lance Ultra TR-FRET), triple mutant del19/T790M/C797S
# Test Context: Km ATP; read-out: IC50 Del19/T790M/C797S (nM) Km ATP
// values below are reported IC50
Value Type: IC50

| Compound | Meas Value |
| --- | --- |
| CC(C)Oc1cc(Nc2ccnc(-c3cnn(S(=O)(=O)C4CC4)c3)n2)ncc1C#Cc1cnn(CCF)c1 | 7 nM |
| CC(=O)N1CCC(n2cc(C#Cc3cnc(Nc4ccnc(-c5cnn(S(=O)(=O)C6CC6)c5)n4)cc3N3CCC(F)(CO)CC3)cn2)CC1 | 0.8 nM |
| CN(C)CCNC1CCN(c2cc(Nc3ccnc(-c4cnn(S(=O)(=O)C5CC5)c4)n3)ncc2C#Cc2ccn(C)n2)CC1 | 0.4 nM |
| CN1CCn2ncc(C#Cc3cnc(Nc4ccnc(-c5cnn(S(=O)(=O)C6CC6)c5)n4)cc3N3CCC(C)(CO)CC3)c2C1 | 0.5 nM |
| CNCC1(C)CCN(c2cc(Nc3ccnc(-c4cnn(S(=O)(=O)C5CC5)c4)n3)ncc2C#Cc2cnn(C)c2)CC1 | 0.1 nM |
| CN(C)CCCn1cc(C#Cc2cnc(Nc3ccnc(-c4cnn(S(=O)(=O)C5CC5)c4)n3)cc2N2CCCC(CO)C2)cn1 (stereo not shown) | 0.4 nM |
| CC(=O)N1CCC(n2cc(C#Cc3cnc(Nc4ccnc(-c5cnn(S(=O)(=O)C6CC6)c5)n4)cc3N3CCC(=O)CC3)cn2)CC1 | 1.1 nM |
| CC(=O)N1CCC(n2cc(C#Cc3cnc(Nc4ccnc(-c5cnn(S(=O)(=O)C6CC6)c5)n4)cc3N3CCCC(O)C3)cn2)CC1 (stereo not shown) | 0.5 nM |
| Cn1cc(C#Cc2cnc(Nc3ccnc(-c4cnn(S(=O)(=O)C5CC5)c4)n3)cc2N[C@@H]2CCC[C@@H](O)C2)cn1 | 3.7 nM |
| CN(C)C(C)(C)CNC1CCN(c2cc(Nc3ccnc(-c4cnn(S(=O)(=O)C5CC5)c4)n3)ncc2C#Cc2cnn(C)c2)CC1 | 0.4 nM |
| CC1(CO)CCN(c2cc(Nc3ccnc(-c4cnn(S(=O)(=O)C5CC5)c4)n3)ncc2C#Cc2cnn(C(F)(F)F)c2)CC1 | 3.5 nM |
| CN(C)CCn1cc(C#Cc2cnc(Nc3ccnc(-c4cnn(S(=O)(=O)C5CC5)c4)n3)cc2N2CCC(C)(CO)CC2)cn1 | 0.3 nM |
| O=S(=O)(C1CC1)n1cc(-c2nccc(Nc3cc(N[C@H]4CC[C@@H](O)CC4)c(C#Cc4cnn(C(F)(F)F)c4)cn3)n2)cn1 | 2.8 nM |
